test system: MS2 coat protein; experiment: apparent KD of MS2 coat protein, switch ON state; designed switch direction (-1 OFF switch, 1 ON switch): -1; higher = weaker reporter binding; settings: FMN input: 0 or 200 uM; Eterna round: R93 (includes R88 designs)
metric.name: apparent KD of MS2 coat protein (µM)
Entry rule: numbers only, all in µM.

Solved cases (3 shown):
1. CAAAAGCUAGGAUAUGCUAAUUGUUCCUUAAGUCAAAAUAAACAUGAGGAUCACCCAUGUAGAAGGAGCCCACA [Tegean]    0.0315
2. GGUUGAAAAGGAUAUACAUGAGGAUCACCCAUGUGAGAGAAAAAAGUGAGAAAGAAAAGUAGAAGGUUUUGACG [salish99-ex3-61]    0.0228
3. CUCAAGUUAGGAUAUUCAAGAAAAGAAGAGAAAGAAAAGAAGAAGAAGGAACAUGAGGAUCACCCAUGUAAGAA [EteRNA is fun!]    0.0538

IN: Endpoint output: apparent KD of MS2 coat protein of AAAAACCUAGGAUAUACAUGAGGAUCACCCAUGUAAAGAAACAAAAAGGGAAACACAAGUAGAAGGAGGAAGAA [JR_Exc003_Sub1203] . Value?
OUT: 0.0226

IN: Do the same for AAGAGGUGAGGAUAUCGAAGAAGAAGAAGAAGAAGAAGAAACGAGAAGGCACAUGAGGAUCACCCAUGUAAGAA [Exclusion 4] please
OUT: 0.0234

IN: Thanks! And AAAAAACAUGAGGAUCACCCAUGUCAGGAUAUGAACGAAAAUAAAUAAAAAUAAAAGUUCAGAAGGGACGAAAA [66%, Wbt, 17] ?
OUT: 0.038

###

system: MS2 coat protein; assay: apparent KD of MS2 coat protein; higher = weaker reporter binding; settings: Eterna round: R107; input ligand: arginine 13.2 mM
metric.name: apparent KD of MS2 coat protein

Solved entries:
1. AACGUCUUGUCGGCCGCCACUGUAUGGUGCGUGACAUGAAACAUGAGGAUCACCCAUGUAGCAUGCAGGACCGGGACAGUGCCAA [Beriaran]    7.49 nM
2. UCGUUGAAGUCGGCCGCCACUGAACUCAUGUUCAACAUGAGGAUCACCCAUGUACCUUAUUUUAACAGGACCGGGACUUUGACGA [JR_ExcTryptoB_Sub002]    113 nM
3. AUUUAUUGUCGUGAUACCAGACAUACAUGAGGAUCACCCAUGUUAAGUAACUUUUUUCAGGUCCCUUGGCAGCACUUUUUAAUUA [JR_Nu_SSTheophyB_Sub019]    21.1 nM

Below: the item to evaluate.
IN: Field request: apparent KD of MS2 coat protein | item: AUUUUUCUAUCAGAUACCAGACAAUUUUAGACAUGAGGAUCACCCAUGUAUAGGGUGUUCGUCCCUUGGCAGCUGUUAAGUUUAA [JR_SSTheophyB_Sub004]
OUT: 62 nM

###

tested on: MS2 coat protein; assay: apparent KD of MS2 coat protein, switch ON state; designed switch direction (-1 OFF switch, 1 ON switch): 1; higher = weaker reporter binding; conditions: FMN input: 0 or 200 uM; Eterna round: R93 (includes R88 designs)
apparent KD of MS2 coat protein by entry:

# count of solved cases: 4
1) AUUCCAAAUAGUCAGGAUAUCAGGCGUAAGACAUGAGGAUCACCCAUGUACUUAGUAAAAGUAACUGAGAAGGGACAGGGUGUAA [JR_SS002_Sub407]    8.64 nM
2) AUAAAAGAAGCGAAGGAUAUCCAAAACCUAACAUGAGGAUCACCCAUGUAAAGAAAGAAAAAAUGGGAGAAGGUCGCAAAGAAUA [73%, More Fisker Same State 2, D3, 9]    11.9 nM
3) UUAUUACAUGAGGAUCACCCAUGUUUAGUGGUGACAGGAUAUACGAAAAAAAAAAAAAAAGUAGAAGGGUCUUAUU [SS 1.1]    162 nM
4) AAAGACAUAGUUCAGGAUAUGGUAAUAGUCACAUGAGGAUCACCCAUGUGCAUUUAUAUGCGCGAUCAGAAGGGAGGUAGAUAAA [SameState2 Malc#17]    24.9 nM

IN: Need apparent KD of MS2 coat protein, item GGAAAACAUGAGGAUCACCCAUGUGAAAACGUGGGAGGAUAUCCAUGGAAACCAUACUGUGGAGAAGGCCCAUGUC [EteRNA is fun!]
OUT: 19.6 nM

IN: Also, AGAAAUAAAGCUGAGGAUAUGGGUAAAUACACAUGAGGAUCACCCAUGUAAAAGAAAAUAAAAAACCAGAAGGCAGCAAAUAAGA [Designing denovo 4] please.
OUT: 23.4 nM

IN: Same question for AAAACACAUGAGGAUCACCCAUGUCAAAAAAACACAGGAUAUCCAAAAAAAAAAAAAAAAGGAGAAGGGUGAAAAA [high kcal] please.
OUT: 65 nM

IN: Now try GAAAAACAUGAGGAUCACCCAUGUGGAAAUAUGGGAGGAUAUACGAAGACGAAAGUCGAAGUAGAAGGCCUAAAAG [Same State 1.4d (Mat - Mod of Eli - )] .
OUT: 29.5 nM
